Biological target: T1, soluble human IL-4Rα (sIL-4Rα; PEPRO TECH, Catalog Number: 200-04R) (human, UniProt P24394 26-232)
T1 construct: Bought protein; also called shIL-4Rα; soluble hIL-4 Rα
T1 sequence: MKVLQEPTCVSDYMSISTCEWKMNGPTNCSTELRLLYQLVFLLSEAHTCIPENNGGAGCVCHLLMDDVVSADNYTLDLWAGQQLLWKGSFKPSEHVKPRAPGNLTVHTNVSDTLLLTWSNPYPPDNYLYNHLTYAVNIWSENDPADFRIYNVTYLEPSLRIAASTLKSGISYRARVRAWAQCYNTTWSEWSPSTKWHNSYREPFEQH
Test: ELISA, coated sIL-4Rα, culture supernatant
Experimental: Sample to be tested: For each antibody of the present invention, 10 μl and 2 μl of the culture supernatant of Expi293 cells expressing the antibody after transient transfection (the medium was Expi293 Expression Medium, Invitrogen, Catalog Number: A1435102; suspension culture was performed for 4 days at 100 rpm in a 8% CO2 incubator) were respectively added to 990 μl and 998 μl of PBS to prepare antibody samples to be tested of 1:100 and 1:500 dilutions. […]
Hi there, I'd appreciate the recorded OD450/OD450 Control antibody 1 for every entry that follows.

# input Would you mind telling me what OD450/OD450 Control antibody 1 value was observed for L1024H1031 (antibody, V domains shown) VH: EVQLVESGGGLVQPGGSLRLSCAASGFTFSRNAMFWVRQAPGKGLEWVSGIGTGGATSYADSVKGRFTISRDNAKNSLYLQMNSLRAEDTAVYYCARGRYYFDYWGQGTLVTVSS VL: EIVLTQSPGTLSLSPGERATLSCRASQSVSNSYLAWYQQKPGQAPRLLIFGASSRAPGIPDRFSGSGSGTDFTLTISRLEPEDFAVYYCQQYDHSAGWTFGQGTKVEIK ?
# output 0.9 ratio to control antibody 1

# input Would you mind telling me what OD450/OD450 Control antibody 1 value was observed for L1011H1000 (antibody, V domains shown) VH: EVQLVQSGGGLVHPGGSLRLSCAGSGFTFSRNAMFWVRQAPGKGLEWVSGIGTGGATNYADSVKGRFTISRDNAKNSLYLQMNSLRAEDMAVYYCARGRYYFDYWGQGTLVTVSS VL: EIVLTQSPGTLSLSPGERATLSCRASQSVSNSYLAWYQQKPGQAPRLLIFGASSRAPGIPDRFSGSGSGTDFTLTISRLEPEDFAVYYCQQYGSSPPWTFGQGTKVEIK ?
# output 0.9 ratio to control antibody 1
